Cited source for all entries: patent US10774064B2

Test target: small-conductance Ca2+-activated K+ channels (SK channels, subtype 2) (Homo sapiens)
Construct: expressed in transfected cells; host or cells: HEK293
Assay text: whole-cell patch-clamp of ionic current through SK2 channels in HEK293 cells (SC100)
Assay type: cell-based
Experimental context: whole-cell patch-clamp, HEK293 cells expressing SK2 channels; concentration that increases the basal current by 100%
Test readout: SC100 (μM)

Cc1cc(-n2ccc(C(F)(F)F)n2)nc(NC2CCC(F)(F)CC2)n1 = + (+ means >1 uM)
Cc1nc(NC2CCC(F)(F)CC2)nc(-n2ccc(C3CC3)n2)n1 = + (+ means >1 uM)
Cc1ccn(-c2nc(NC3CCCC(C(F)(F)F)C3)cc(C(C)O)n2)n1 (centres unmarked) [IN10880-062-P1] = + (+ means >1 uM)

###

Test target: small-conductance Ca2+-activated K+ channels (SK channels, subtype 2) (Homo sapiens)
Construct: expressed in transfected cells; host or cells: HEK293
Assay text: whole-cell patch-clamp of ionic current through SK2 channels in HEK293 cells (SC100)
Assay type: cell-based
Experimental context: whole-cell patch-clamp, HEK293 cells expressing SK2 channels; concentration that increases the basal current by 100%
Test readout: SC100 (μM)

Worked examples, 8 molecules total:
Cc1ccn(-c2nc(NC3CCC(F)(F)CC3)cc(OCc3cocn3)n2)n1 [IN11053-024-P1] = + (+ means >1 uM)
COC(=O)N1CCC(c2cc(NC3CCC(F)(F)CC3)nc(-n3ccc(C)n3)c2)CC1 [NSSy6885] = +++ (+++ means <200 nM)
Cc1ccn(-c2nc(NC3CCC(O)CC3)cc(N3CCOCC3)n2)n1 (stereo not drawn) [NSSy6486] = + (+ means >1 uM)
Cc1ccn(-c2nc(C(C)O)cc(N3CCCC4CCCCC43)n2)n1 (stereo not drawn) [IN10881-054-P1] = + (+ means >1 uM)
Cc1cc(NC2CCC(F)(F)CC2)nc(-n2ccc(-c3ccccc3)n2)n1 [NSSy7028] = + (+ means >1 uM)
COC(C)c1cc(N(C)C2CCC(F)(F)CC2)nc(-n2ccc(C(F)(F)F)n2)n1 (stereo not drawn) [IN11053-073-P1] = + (+ means >1 uM)
CC(F)c1ccn(-c2nc(NC3CCC(F)(F)CC3)cc(N3CCOCC3)n2)n1 (stereo not drawn) [IN11243-041-P1] = +++ (+++ means <200 nM)
CC(O)c1cc(NC2CCC(F)(F)CC2)nc(-n2ccc(C(F)(F)F)n2)n1 (stereo not drawn) [IN11053-062-P1] = + (+ means >1 uM)

What the record says about COC(=O)N1CCC(c2cc(-n3ccc(C)n3)nc(NC3CCC(F)(F)CC3)n2)CC1 [NSSy6981] : SC100 (μM) is +++ (+++ means <200 nM)

Notebook: COc1cc(NC2CCCCC2OC)nc(-c2nc(C)cs2)n1 (stereo not drawn) [IN11140-090-P1] , SC100 (μM) read as + (+ means >1 uM)

###

Test target: small-conductance Ca2+-activated K+ channels (SK channels, subtype 2) (Homo sapiens, UniProt Q9H2S1)
Construct: expressed in transfected cells; host or cells: HEK293
Assay text: whole-cell patch-clamp of ionic current through SK2 channels in HEK293 cells (SC100)
Format: cell-based
Experimental context: whole-cell patch-clamp, HEK293 cells expressing SK2 channels; concentration that increases the basal current by 100%
Test readout: SC100 (μM)

Sample records with SC100 (μM):
Cc1cc(C)n(-c2cc(C)c(NC3CCC(F)(F)CC3)nn2)n1 [IN10966-083-P1] = + (+ means >1 uM)
Cc1csc(-c2cc(COC(N)=O)cc(NC3CCC(F)(F)CC3)n2)n1 [IN11133-061-P1] = +++ (+++ means <200 nM)
Cc1csc(-c2cc(OCc3cn(C)nn3)cc(NC3CCC(F)(F)CC3)n2)n1 = +++ (+++ means <200 nM)
Cc1csc(-c2nc(NC3CCC(F)(F)CC3)cc(OC3CC3)n2)n1 [IN11146-033-P1] = + (+ means >1 uM)

Just so you know, measured SC100 (μM) for FC1(F)CCC(Nc2ccnc(-n3ccc(C4CC4)n3)n2)CC1 came out at + (+ means >1 uM)

Field SC100 (μM) (entry COCCOc1cc(-n2ccc(C)n2)nc(NC2CCC(F)(F)CC2)n1 ) reads + (+ means >1 uM)

get_value(item= COCCNc1cc(-n2ccc(C)n2)nc(NC2CCC(F)(F)CC2)n1 , readout=SC100 (μM)) returns + (+ means >1 uM)

Entry under test: COc1cnc(-n2ccc(C)n2)nc1NC1CCC(F)(F)CC1 . Its SC100 (μM) was + (+ means >1 uM)

Lab note: measured SC100 (μM) of Cc1csc(-c2cc(N3CCN4C(=O)OC[C@H]4C3)cc(NC3CCC(F)(F)CC3)n2)n1 was +++ (+++ means <200 nM)

Query Cc1csc(-c2nc(NC3CCC(F)(F)CC3)cc(OC(C)C)n2)n1 [IN11055-016-P1] yields SC100 (μM) of + (+ means >1 uM)

Please fill in: SC100 (μM) reported for COc1cc(NC2CCC3(CC2)CC3)nc(-c2nc(C)cs2)n1 [IN11106-033-P1] = + (+ means >1 uM)

Noted for COC(=O)N1CC(Oc2cc(NC3CCCCC3)nc(-c3nccs3)n2)C1 : its SC100 (μM) reads + (+ means >1 uM)
